All values here come from paper PMC4998035.

Assay name: Solubility of FK506 in NIC solution
Type: physicochemical
Assay context: water (0% (w/v) NIC), 37 °C, water, thermodynamic from solid
Endpoint name: solubility at 3 days (µg/mL)
Answer format: numeric, µg/mL implied, no suffix.

Prompt line: Form field: reported solubility at 3 days of C=CC[C@@H]1/C=C(\C)C[C@H](C)C[C@H](OC)[C@H]2O[C@@](O)(C(=O)C(=O)N3CCCC[C@H]3C(=O)O[C@H](/C(C)=C/[C@@H]3CC[C@@H](O)[C@H](OC)C3)[C@H](C)[C@@H](O)CC1=O)[C@H](C)C[C@@H]2OC [FK506, Tacrolimus]
Response line: 0.69
